# assayOverview: soluble on expression in E. coli; label from the status in PepcDB or PDB records
reportedMetric: soluble on expression in E. coli

# annotated cases, reported soluble on expression in E. coli shown
[[record]]
inputsequence = "LMINDVPGLVTAWWDEELQALRIKWFTEYAEGSAVADAVEFAMTYVNENGVKNWLCDLSESQEALKAEDQEWVQTEFKRLIAESSLEKVVLIPPLPETGQDTEWLKDWEANTKRDYGGQIDARLLSEEGEIQRFFEKG"
testvalue = "not soluble"

[[record]]
inputsequence = "MRRAEMLLLKSLAETLMADRDNRHDDLQATMRLAHLSSPEMILYMVNRVLELEESIERIAAVLQKLSADEPMPLEETPPEPAFEPALQSRATETAET"
testvalue = "not soluble"

[[record]]
inputsequence = "MAKENPPIVFGPVLSRRFGKSLGVDLSPSKKQCNYNCIYCELGKAKPIERMEEVIKVETLINAIQNALNNLTTPIDVLTITANGEPTLYPHLLELIQSIKPFLKGVKTLILSNGSLFYEPKVQQALKEFDIVKFSLDAIDLKAFERVDKPYSKDINKILEGILRFSQIYQGQLVAEVLLIKGVNDSANNLKLIAAFLKQINIARVDLSTIDRPSSFKAPKLSEDELLKCSLFFEGLCVSLPKRSITQAKKLISCGIDELLALISRRPLSAEEAPLILDSNAFKHLETLLNHKQITIKKVGSLEFYCAFLEHHHHHH"
testvalue = "not soluble"

[[record]]
inputsequence = "KIPEFRDVLISTIGGPHAKLGYEIARALVEDKSGRIKLLYVGSSEKEREKAEKVFEEAMEILNGLNVEREFAISSSPSDVVAREAESFDLVIVGASERTFLKNFLTGLFPEKVVMKTSKTVAMTRKWVGLLNR"
testvalue = "not soluble"

[[record]]
inputsequence = "MEINQKREEEDDDEMEWRRDGVKRDSNDFSNYCRQRSLSSDATIMSRQFFVYLIFHVLIDNVIARAPFTRDRPRGLGLLQLPTGMTDERSGPFFPGLYIAGDKAGQKPQTVPDVSLPGQTASFTGRSAFNPFTHMVSAVYTEDLVDAWGAGFAVNGVNNHGLNVRKNFDAFADAPLSSSDGMYQPFLSAASIGSEYDFSKIREVSGNFNLPIPGVNELFDFDGRFMVKGGGNGILNSAMEFPLTLSDPNERAPYTFKYLNYMADRHMHYGHVVPNVNLFVVGKDKIMERLMQNRLNPTMVG"
testvalue = "not soluble"


soluble on expression in E. coli measured on `MATAKKITIHDVALAAGVSVSTVSLVLSGKGRISTATGERVNAAIEELGFVRNRQASALRGGQSGVIGLIVRDLSAPFYAELTAGLTEALEAQGRMVFLLHGGKDGEQLAQRFSLLLNQGVDGVVIAGAAGSSDDLRRMAEEKAIPVIFASRASYLDDVDTVRPDNMQAAQLLTEHLIRNGHQRIAWLGGQSSSLTRAERVGGYCATLLKFGLPFHSDWVLECTSSQKQAAEAITALLRHNPTISAVVCYNETIAMGAWFGLLKAGRQSGESGVDRYFEQQVSLAAFTDATPTTLDDIPVTWASTPARELGITLADRMMQKITHEETHSRNLIIPARLIAAK` = not soluble

soluble on expression in E. coli measured on `MGSDKIHHHHHHMEFFSTRNKILSINPNGLRSTSIQLRERIWNVFYKEEYDYYDTLEYTSYTTGIEDMMLEMGIKYEFPANKIYKNQNAEKLHKHVVQCEGMWYRIYDFIEKYLRVTDSEKTQRLTIEFNRILEEEVAPYRILNGLVVPIIGKSELNSIGETIDLEYESVSKHMTKALELYSDRKKPDYENSVKESISSVESMCSIITGLSGGAATLGNTLKKLKENGVNIHPALENAFKQLYGYTSDSGGIRHGSIEFVNVASEDAKYMLVSCSAFVNYLTEKWIKYNLK` = not soluble

soluble on expression in E. coli measured on `MGSDKIHHHHHHMARPRKTIVSLDDTPYYHCCSRVVRKAFLCGIDSATGENFEHRRAWVEGRMFELATIFAMDICAYAVMSNHLHIVLRVDAEQAKQWTDKQVLIQWHKGFKGTLLTQRFVKDEVLDEFELKTVIDSVAVYRERLTSISWFIRALCEPIARMANKEDGCTGHFWEGRFKSQALLDEAAVLACMAYVDLNPVRAKMAATPETSDYTGIQRRINAALKGEQPNELLPFLGNERDNMPKGLMFSAKDYLLLVEDTGRIIRDDKRGAISRSSQYILDRLNIPTENWLKITKDFGHLFKGAVGSLQALSQYCEHLERKRRQSAANCQRWLCG` = not soluble

soluble on expression in E. coli measured on `MKLTWIKCMSKTERISDIDEPRLFEENGVEAHIAAFVMPLLKPLGFRLVRVKLLGLNGLTLQIMVERPDGSMTVEDCETVSRTVSPLLDVQNVIERKYHLEISSPGIDRPLVRKSDFFHWQGHIAKIETKIILEGRRKFRGTLTNITQDGFTLNTDKAAYGESMYISIPFDDIIDAHLVLTDELIRDALKKNKDLSQQFISEDNQKLSKQERNYKN` = not soluble

soluble on expression in E. coli measured on `MDIFMTCSICGFTHNCICAHQPNLSSNIEFALLYHENERHKLTNTGKLLLNSLSNTTEYTWQRKEPPQALISKINQADTETWLLFPSKEPVLSSDFHHRHDPSKKQLFVLLDATWQEAKKMVNKSPWLKALPCLEIQTDEASRYHLRRNQSEGNLCTCEAGIEVLEMVKEPENAQALSCYYDQFLTVFQAERSGHKFTSLEHHHHHH` = soluble

soluble on expression in E. coli measured on `MWLFEESAVGFCSNSGVIDNKHAGYTGTGFIDTENAVGASIVWSLSAASAKTYTAQIRFGNGGTSARRATVVVNDSQIKTLDFPTNSNWTQWQTVNVDIPLKAGTNSIKLVAETADGLANIDSIRVTGNGITPAACPLEHHHHHH` = soluble

soluble on expression in E. coli measured on `MGSDKIHHHHHHMYLKVFKEDVIDGLQKAANIIPAKTGAAYLRSIWLKAEAGMVHVLSTDSNIEFRGSYKAEVTEEGLAGVQGRAFVDLIRKLPAGEITLHLDPKTGTLGIEQGRRKYTLPTNDTAWFQNFSDYPESGSVFWSGDFLQELIDKLSFCISDEDTMEAIACMSMKPRQDNAIEACGLNGHQFAMQRFLNDDIHALLPAEGILVQKKYLMELKKWLGADEIELNIDNKRLFFRTGDKRETFSLPLSYYQYPDYTSFVSKLSTPDAGALEVNRKDMMAALDRVLIFNTDNNRCTYFDLEAGEVSLSSQGQEVGSASESLEGTYDGSLKRIAFPTRNLIEIMNHYQSDSMRFTLTGTEGPCGLTGENDPDYLVIVMPMKIVEETYYSEEEV` = not soluble

This collection of values is drawn from the DeepSol protein solubility set.
